study-system: E3 ubiquitin-protein ligase XIAP (Homo sapiens)
assay-info: XIAP binders, primary screen, biophysical, small-molecule microarray, fluorescence 635 nm (AID 1181);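 further: score merges 667 nm emission and signal to noise over triplicate slides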
run-parameters: small-molecule microarray binding, higher = more signal
Here the recorded composite z-score is given for each entry.

compound	composite z-score
O=C1OCCC/C=C\[C@H]2OC34C=CCN(Cn5nnc6ccccc65)C(=O)[C@H]3N(CCCCCO)C(=O)[C@@H]4C12 (some centres undefined)	0.178
[N-]=[N+]=NCc1ccccc1C[C@]1(C(=O)NCC(O)CO)N=C(c2ccc(OCCCO)cc2)O[C@H]1c1ccccc1N=[N+]=[N-] (some centres undefined)	-0.0057
CCOC(=O)C[C@H]1[C@H](OC(=O)Cc2ccc3c(c2)OCO3)[C@@H](NC(=O)C2CCCCC2)c2cc(OCCCO)ccc2N1C(=O)Cc1ccc(OC)cc1	0.0413
COc1ccc([Si](C)(C)[C@@H]2[C@@H](CCn3cc([C@H](O)c4ccccc4)nn3)O[C@]3(C(=O)N(Cc4cccc(N5CCOC5=O)c4)c4ccccc43)[C@H]2C)cc1	-0.102
COc1cc(C(O)C2C=CC3C(=O)N(c4ccccc4)C(=O)C3N2Nc2ccc(C#N)cc2)cc(OC)c1OC (centres undefined)	0.0819
O=c1oc(-c2ccccc2)nc2cc(Br)ccc12	0.208
COCCOC(=O)N1C(=O)[C@@]2(c3cc(C#CCC(C(=O)OC)C(=O)OC)ccc31)[C@H](c1ccccc1OCCO)N1[C@H](c3ccccc3)[C@H](c3ccccc3)OC(=O)[C@H]1[C@@H]2C(=O)N1CCc2cc(OC)c(OC)cc2C1	0.314
CCCCC=C[C@@H](NC(=O)c1ccc(C(=O)OC)cc1)c1ccccc1	-0.145
COc1ccc(C(=O)Nc2cccc(CN3C(=O)[C@@]4(O[C@@H](CCn5cc(CCO)nn5)[C@H]([Si](C)(C)c5ccc(OC)cc5)[C@H]4C)c4ccccc43)c2)cc1	0.126
COc1ccc([Si](C)(C)[C@H]2[C@H](CC(=O)N(CCO)Cc3ccccc3)O[C@@]3(C(=O)N(Cc4cccc(N5CCC5=O)c4)c4ccccc43)[C@@H]2C)cc1	0.0259
COC(=O)[C@@]1(Cc2ccccc2)N=C(c2ccc(OCCCO)cc2)O[C@H]1c1ccccc1N=[N+]=[N-]	0.723
COCCOC(=O)N1C(=O)[C@@]2(c3cc(C#CCNC(N)=O)ccc31)[C@H](c1ccccc1OCCO)N1[C@H](c3ccccc3)[C@H](c3ccccc3)OC(=O)[C@H]1[C@@H]2C(N)=O	-0.0525
O=C1OCC=C[C@H]2OC34C=CCN(c5ccc(Cl)cc5)C(=O)[C@H]3N(CCCCCCO)C(=O)[C@@H]4[C@@H]12 (some centres undefined)	-0.138
CCCCCN1CC=CC23O[C@@H]4/C=C\CCCOC(=O)C4[C@H]2C(=O)N(CCCCCCO)[C@@H]3C1=O (some centres undefined)	0.147

====

assay-info: A549 cell viability effects, profiling panel, calcein-AM fluorescence, 48 h, basal (AID 1162); further: test concentration not given here
run-parameters: higher = more signal
Recorded z-score for the following compounds

compound	z-score
Cc1ccc(S[C@]2(C(=O)NCC(C)C)CC(=O)N(Cc3ccccc3)[C@@H]2c2ccc(CO)cc2I)cc1	0.715
CC(C)(C)OC(=O)CC[C@@]1(C(=O)O)N=C(c2ccc(OCCCO)cc2)O[C@@H]1c1ccccc1N=[N+]=[N-]	0.188
N[C@@H](Cc1ccccc1)Cn1cc(-c2ccccc2)nn1	-0.192
CCOC(=O)C1=C[C@@H](C(C)C)N(S(=O)(=O)c2ccc(C)cc2)[C@H]1c1ccc(C(C)C)cc1	0.012
COc1ccc(C(O)C2C=CC3C(=O)N(c4ccccc4)C(=O)C3N2Nc2ccc([N+](=O)[O-])cc2)cc1OCc1ccccc1 (centres undefined)	-0.805
[N-]=[N+]=NCc1ccccc1[C@@H]1OC(c2ccc(OCCCO)cc2)=N[C@]1(Cc1ccccc1)C(=O)N1CCCCC1	0.251
O=C1c2ccccc2[C@@]2(Cc3ccccc3N(Cc3ccccc3)C2=O)[C@H](c2ccc(CO)cc2)N1C1CCCCC1	-0.774
CCOC(=O)C[C@H]1[C@H](OC(=O)c2ccc(C(=O)c3ccccc3)cc2)[C@@H](NC(=O)C2CCCCC2)c2cc(OCCCO)ccc2N1C(=O)c1ccccc1	-0.195
Cc1ccccc1C(O)C1C=CC2C(=O)N(C)C(=O)C2N1Nc1ccccc1 (centres undefined)	0.262
CC=CC(O)C1C=CC2C(=O)N(c3ccccc3)C(=O)C2N1Nc1ccc(C(C)C)cc1 (centres undefined)	0.0409
CCOC(=O)C[C@H]1[C@H](OC(=O)c2ccccc2-c2ccccc2)[C@@H](NC(=O)Cc2ccc(OC)cc2)c2cc(OCCCO)ccc2N1C(=O)c1ccccc1	0.369
COc1ccc(C#Cc2ccc3c(c2)[C@]2(C(=O)N3)[C@H](C(=O)NC[C@H](O)c3ccccc3)[C@H]3C(=O)O[C@H](c4ccccc4)[C@H](c4ccccc4)N3[C@@H]2c2ccc(OCCO)cc2)cc1	0.415
CC(C)NC(=O)[C@@H]1c2ccccc2C(=O)N(Cc2ccccc2)[C@H]1c1ccc(CO)cc1	0.831
COCCOC(=O)N1C(=O)[C@@]2(c3cc(C#CCNC(N)=O)ccc31)[C@H](c1ccccc1OCCO)N1[C@H](c3ccccc3)[C@H](c3ccccc3)OC(=O)[C@H]1[C@@H]2C(N)=O	-0.0052
C=CCNC(=O)[C@@H]1[C@H]2C(=O)O[C@H](c3ccccc3)[C@H](c3ccccc3)N2[C@H](c2ccc(O)cc2)[C@@]12C(=O)N(C(=O)OCCOC)c1ccccc12	0.231
CN1CCC(CCCO)=CC1c1ccc(CN2CCCC2)cc1 (centres undefined)	-0.701
CC(C)C(=C=CC[C@@H](O)c1ccccc1OCCO)C[C@@H](O)c1ccccn1	-0.158
Cc1ccc(S[C@]2(C(=O)NCC(C)C)CC(=O)N(Cc3ccccc3Cl)[C@@H]2c2ccc(CO)cc2)cc1	1.63
CS(=O)(=O)CCOC(=O)C1=CC(c2ccc(CO)cc2)=CC(C2CC2)N(Cc2cc3c(cc2Br)OCO3)C=C1C(=O)OCCS(C)(=O)=O (centres undefined)	-0.261
CCCCCN1CC=CC23O[C@@H]4C=CCOC(=O)[C@@H]4[C@H]2C(=O)N(CCCO)[C@@H]3C1=O (some centres undefined)	-0.279
C=CCOC(=O)[C@H]1[C@@H]2C(=O)O[C@@H](c3ccccc3)[C@@H](c3ccccc3)N2[C@@H](c2ccc(OCCOC(=O)[C@@H]3C[C@@H]4C(=O)N5CCC[C@H]5C(=O)N4[C@@H]3c3ccc(O)cc3)cc2)[C@]12C(=O)Nc1ccccc12	0.924
O=C(O)[C@H]1C[C@H]2C(=O)NCC(=O)N2[C@H]1c1ccc(O)cc1	1.14
COc1ccc(NN2C(C(O)c3ccc(OC)c(OCc4ccccc4)c3)C=CC3C(=O)N(C4CCCCC4)C(=O)C32)cc1 (centres undefined)	0.412
O=C1N(CCS(=O)(=O)c2ccccc2)Cc2ccccc2[C@H]2OC(c3ccc(OCCCO)cc3)=N[C@@]12CCS(=O)(=O)c1ccccc1	1.02
O=C(O)[C@@]1(Cc2ccccc2)N=C(c2ccc(OCCCO)cc2)O[C@H]1c1ccccc1	0.83
CC(C)N1CC=CC23O[C@@H]4C=CCOC(=O)[C@@H]4[C@H]2C(=O)N(CCO)[C@@H]3C1=O (some centres undefined)	-0.237
CC(=O)NCCCC[C@@H]1NC(=O)[C@@H]2C[C@H](C(=O)NCCCCN(C)C)[C@H](c3ccc(O)cc3)N2C1=O	1.42
COC(=O)C(CC#Cc1ccc2c(c1)[C@]1(C(=O)N2)[C@H](c2ccc(OCCO)cc2)N2[C@H](c3ccccc3)[C@H](c3ccccc3)OC(=O)[C@H]2[C@@H]1C(=O)NC[C@H](O)c1ccccc1)C(=O)OC	0.876
COc1ccc(CCNC(=O)[C@@]2(Sc3ccc(C)cc3)CC(=O)N(Cc3ccccc3Cl)[C@@H]2c2ccc(CO)cc2I)cc1	0.507

====

assay-info: basal MM1S mitochondrial membrane potential changes, profiling panel, cell-based, JC-1 fluorescence, 24 h, 100 nL compound (AID 1170); further: test concentration not given here
run-parameters: higher = more signal

molecule	z-score
C=C(C(=O)CC[C@H](OC(C)=O)c1ccc(OCCO)cc1)C(C)C	0.19
COc1ccc(C(=O)Nc2cccc(CN3C(=O)[C@@]4(O[C@@H](CCn5cc(CCO)nn5)[C@H]([Si](C)(C)c5ccc(OC)cc5)[C@H]4C)c4ccccc43)c2)cc1	-2.3
CCOC(=O)C1=C[C@@H](CC)N(S(=O)(=O)c2ccc(C)cc2)[C@H]1c1ccccc1	-0.894
C=C(COC)C(=O)CC[C@@H](OC(=O)c1cccnc1)c1ccc(CO)o1	0.627
O=c1cccc(CCc2ccccc2)o1	0.226
O=C(CS)NCCCCCCNC(=O)[C@@H]1C[C@@H]2C(=O)N3CCC[C@H]3C(=O)N2[C@@H]1c1ccc(O)cc1	0.0659
CC(=CC1CCCCC1)[C@@H](NC(=O)c1ccc(C(F)(F)F)cc1)c1ccc(-c2ccccc2)cc1	-0.693
COc1ccc(C#Cc2ccc3c(c2)[C@]2(C(=O)N3)[C@H](c3ccc(O)cc3)N3[C@H](c4ccccc4)[C@H](c4ccccc4)OC(=O)[C@H]3[C@@H]2C(=O)NC[C@H](O)c2ccccc2)cc1	-1.3
CC(=O)NCCCC[C@@H]1NC(=O)[C@@H]2C[C@H](C(=O)NCCCCCCNC(=O)CS)[C@H](c3ccc(O)cc3)N2C1=O	-0.795
O=C1O[C@@H](c2ccccc2)[C@@H](c2ccccc2)N2[C@@H](c3ccc(OCCO)cc3)[C@]3(C(=O)Nc4ccc(C#CC5=CCCCC5)cc43)[C@@H](C(=O)O)[C@H]12	-1.42
O=C(CS)NCCCCCCNC(=O)[C@H]1C[C@H]2C(=O)NCC(=O)N2[C@H]1c1ccc(O)cc1	-0.459
COCCOC(=O)N1C(=O)[C@@]2(c3ccccc31)[C@H](C(=O)Nc1nc3ccccc3s1)[C@H]1C(=O)O[C@H](c3ccccc3)[C@H](c3ccccc3)N1[C@@H]2c1ccc(OCCO)cc1	-1.57
C=CCC(OC(C)=O)[C@@H]1[C@@H](N(Cc2cc3ccccc3o2)C(=O)c2ccc(C)cc2)c2cc(OCCCO)ccc2N1C(=O)c1ccc2ccccc2c1 (stereo not given in full)	0.748
COc1ccc(NN2C(C(O)c3ccc(OC)c(OCc4ccccc4)c3)C=CC3C(=O)N(C4CCCCC4)C(=O)C32)cc1 (stereo not given)	-1.33
O=C1OCCC=C[C@H]2OC34C=CCN(c5ccc6ccccc6c5)C(=O)[C@H]3N(CCCCCO)C(=O)[C@@H]4C12 (stereo not given in full)	-0.0576
